# Tested on: HMLE_shECad viability, CellTiter-Glo luminescence, 72 h
# Assay: cytotoxicity toward E-cadherin-knockdown HMLE CSC-like cells – cell-based, CellTiter-Glo luminescence, dry powder, set 2, dose response (AID 588844)
Below: a set of entries, each annotated with reported AC50.

# count of solved cases: 2
>  <Mol>
O=C(/C=C/c1ccc(-c2ccccc2)cc1)NC1=NCCS1

>  <AC50>
625 nM

$$$$
>  <Mol>
Cc1csc(NC(=O)c2ccc(COc3ccccc3)o2)n1

>  <AC50>
70 nM

$$$$

Reported AC50 of O=C(NC1CCCC1)c1ccc(COc2ccccc2)o1 : 23500 nM

Reported AC50 of CC(C)c1ccc(/C=C/C(=O)NC2=NCCS2)cc1 : 300 nM

Reported AC50 of Cc1csc(NC(=O)c2ccc(COc3cccc(Cl)c3)o2)n1 : 3000 nM

Reported AC50 of Cc1csc(NC(=O)c2ccc(COc3ccccc3F)o2)n1 : 2430 nM
